target: T1, Wuhan-Hu-1 S protein on plant-produced virus-like particles (Severe acute respiratory syndrome …, UniProt P0DTC2); test: ELISA; details: both partners purified
T1 construct: also called Spike protein of the Wuhan variant on VLPs; Wuhan variant
pEC50: −log10 of the molar value.
MEASURED_PARAMETER: pEC50

{"columns": ["BINDER", "MEASURED_PARAMETER", "RESULT"],
 "data": [
  ["COVA2-15 secretory IgA1 (antibody, V domains shown) VH: QVQLLESGGGLVQPGGSLRLSCAASGFTFSSYAMSWVRQAPGKGLEWASAISGSGGSTYYADSVEGRFTISRDNSKNTLYLQMNSLRAEDTAVYYCAKDTGYCGDDCYIKLIRGGPDYWGQGTLVTVSS VL: DIVMTQSPLSLPVTLGQPASISCRSSQSLVYSDGNTFLNWFQQRPGQSPRRLIYQVSNRDSGVPDRFSGSGSGTDFTLKISRVEAEDVGVYYCMQGTHWPRTFGQGTKLEIK", "pEC50", "~11.00"],
  ["COVA2-15 secretory IgA2 (antibody, V domains shown) VH: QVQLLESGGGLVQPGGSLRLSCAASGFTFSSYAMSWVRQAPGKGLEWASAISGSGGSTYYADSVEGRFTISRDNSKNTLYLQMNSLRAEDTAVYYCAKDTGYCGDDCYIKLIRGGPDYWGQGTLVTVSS VL: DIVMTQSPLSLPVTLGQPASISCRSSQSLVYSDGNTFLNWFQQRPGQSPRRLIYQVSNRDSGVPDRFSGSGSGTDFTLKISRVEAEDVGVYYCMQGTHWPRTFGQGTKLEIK", "pEC50", "~11.00"],
  ["COVA2-15 monomeric IgA1 (antibody, V domains shown) VH: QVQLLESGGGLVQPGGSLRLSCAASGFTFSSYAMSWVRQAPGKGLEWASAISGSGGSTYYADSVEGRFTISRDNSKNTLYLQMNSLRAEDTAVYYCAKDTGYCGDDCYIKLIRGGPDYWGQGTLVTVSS VL: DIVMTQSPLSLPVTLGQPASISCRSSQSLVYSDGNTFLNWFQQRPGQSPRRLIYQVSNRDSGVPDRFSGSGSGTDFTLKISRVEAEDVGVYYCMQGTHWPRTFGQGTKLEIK", "pEC50", "~10.30"],
  ["COVA2-15 IgG (antibody, V domains shown) VH: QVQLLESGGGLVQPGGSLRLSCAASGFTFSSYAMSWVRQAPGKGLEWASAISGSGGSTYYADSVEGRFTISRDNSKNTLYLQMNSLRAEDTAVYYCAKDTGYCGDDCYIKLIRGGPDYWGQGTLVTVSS VL: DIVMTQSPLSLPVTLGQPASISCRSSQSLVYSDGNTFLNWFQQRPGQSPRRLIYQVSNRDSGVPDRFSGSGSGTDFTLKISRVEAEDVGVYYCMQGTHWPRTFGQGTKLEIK", "pEC50", "~10.30"]
]}

Turning now to a further record.
Name the recorded pEC50 for COVA2-15 monomeric IgA2 (antibody, V domains shown) VH: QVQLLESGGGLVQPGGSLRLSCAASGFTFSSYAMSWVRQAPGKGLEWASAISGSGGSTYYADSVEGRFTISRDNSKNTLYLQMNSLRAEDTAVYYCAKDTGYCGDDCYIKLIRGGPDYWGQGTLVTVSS VL: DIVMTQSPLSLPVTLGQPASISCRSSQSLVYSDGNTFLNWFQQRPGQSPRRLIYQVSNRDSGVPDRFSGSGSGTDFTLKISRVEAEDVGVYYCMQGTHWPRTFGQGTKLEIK .
~10.30

These entries and their values trace back to paper PMC10928148.
